Molecular target: human Fc (human)
Experiment: ELISA, negative control
measured.metric: optical density (OD)
Give just the number in OD; leave the unit off.

Check out these entries, answers already filled in.
Give its optical density value. Item: 373_G08 (antibody, V domains shown) VH: EVQLLESGGGLVQPGGSLRLSCAASGFTFDSYSMNWVRQAPGKGLEWVSNINYNGGYTSYADSVKGRFTISRDNSKNTLYLQMNSLRAEDTAVYYCARGANWHDTALDYWGQGTLVTVSS VL: DIQMTQSPSSLSASVGDRVTITCRASQSILTYLNWYQQKPGKAPKLLIYAATSLASGVPSRFSGSGSGTDFTLTISSLQPEDFATYYCQQSYDSPLTFGGGTKVEIK
0.172

Give its optical density value. Item: 370_A10 (antibody, V domains shown) VH: EVQLLESGGGLVQPGGSLRLSCAASGFTFSDYSMNWVRQAPGKGLEWVSSINYNSGYKGYADSVKGRFTISRDNSKNTLYLQMNSLRAEDTAVYYCARSATWHDTHLDYWGQGTLVTVSS VL: DIQMTQSPSSLSASVGDRVTITCRASQSILSYVNWYQQKPGKAPKLLIYAATSLASGVPSRFSGSGSGTDFTLTISSLQPEDFATYYCQQSYDTPLTFGGGTKVEIK
0.434

Give its optical density value. Item: 365_G09 (antibody, V domains shown) VH: EVQLLESGGGLVQPGGSLRLSCAASGFTFSSYSMNWVRQAPGKGLEWVSGINYNGGYKSYADSVKGRFTISRDNSKNTLYLQMNSLRAEDTAVYYCARGANWHDTHLDYWGQGTLVTVSS VL: DIQMTQSPSSLSASVGDRVTITCRASQSIITYLNWYQQKPGKAPKLVIYAATSRASGVPSRFSGSGSGTDFTLTISSLQPEDFATYYCQQSYNSPLTFGGGTKVEIK
0.288

Give its optical density value. Item: 365_E04 (antibody, V domains shown) VH: EVQLLESGGGLVQPGGSLRLSCAASGFTFDSYGMHWVRQAPGKGLEWVASINYNGGYKSYADSVKGRFTISRDNSKNTLYLQMNSLRAEDTAVYYCARAANWHDTALDYWGQGTLVTVSS VL: DIQMTQSPSSLSASVGDRVTITCRASQSILSYVNWYQQKPGKAPKLLIYAATSLASGVPSRFSGSGSGTDFTLTISSLQPEDFATYYCQQSYELPLTFGGGTKVEIK
0.46

Give its optical density value. Item: 369_B08 (antibody, V domains shown) VH: EVQLLESGGGLVQPGGSLRLSCAASGFTFDSYGMHWVRQAPGKGLEWVSSINYNGGYTSYADSVKGRFTISRDNSKNTLYLQMNSLRAEDTAVYYCARAATWHDTHLDYWGQGTLVTVSS VL: DIQMTQSPSSLSASVGDRVTITCRASQSILSYVNWYQQKPGKAPKLLIYAATSRASGVPSRFSGSGSGTDFTLTISSLQPEDFATYYCQQSYESPLTFGGGTKVEIK
0.309

Give its optical density value. Item: 368_H05 (antibody, V domains shown) VH: EVQLLESGGGLVQPGGSLRLSCAASGFTFSSYSMNWVRQAPGKGLEWVANINYNGGYKSYADSVKGRFTISRDNSKNTLYLQMNSLRAEDTAVYYCARGANWHDTHLDYWGQGTLVTVSS VL: DIQMTQSPSSLSASVGDRVTITCRASQSIVSYVNWYQQKPGKAPKLVIYATTSRASGVPSRFSGSGSGTDFTLTISSLQPEDFATYYCQQSYESPLTFGGGTKVEIK
0.277

Give its optical density value. Item: 373_E11 (antibody, V domains shown) VH: EVQLLESGGGLVQPGGSLRLSCAASGFTFDSYGMHWVRQAPGKGLEWVASINYNGGYTSYADSVKGRFTISRDNSKNTLYLQMNSLRAEDTAVYYCARAANWHDTALDYWGQGTLVTVSS VL: DIQMTQSPSSLSASVGDRVTITCRASQSIVSYLNWYQQKPGKAPKLVIYAATSRASGVPSRFSGSGSGTDFTLTISSLQPEDFATYYCQQSYDSPLTFGGGTKVEIK
0.243

Give its optical density value. Item: 373_D11 (antibody, V domains shown) VH: EVQLLESGGGLVQPGGSLRLSCAASGFTFSSYGMHWVRQAPGKGLEWVAGINYNGGYTSYADSVKGRFTISRDNSKNTLYLQMNSLRAEDTAVYYCARAATWHDTHLDYWGQGTLVTVSS VL: DIQMTQSPSSLSASVGDRVTITCRASQSILTYVNWYQQKPGKAPKLLIYAATSRASGVPSRFSGSGSGTDFTLTISSLQPEDFATYYCQQSYDNPLTFGGGTKVEIK
0.364

Give its optical density value. Item: 366_E08 (antibody, V domains shown) VH: EVQLLESGGGLVQPGGSLRLSCAASGFTFSDYSMNWVRQAPGKGLEWVSNINYNGGYTSYADSVKGRFTISRDNSKNTLYLQMNSLRAEDTAVYYCARGANWHDTHLDYWGQGTLVTVSS VL: DIQMTQSPSSLSASVGDRVTITCRASQSIVTYLNWYQQKPGKAPKLLIYAATSRHSGVPSRFSGSGSGTDFTLTISSLQPEDFATYYCQQSYSNPLTFGGGTKVEIK
0.272

Could you now look at the following binder, please?
Give its optical density value. Item: 373_F11 (antibody, V domains shown) VH: EVQLLESGGGLVQPGGSLRLSCAASGFTFDSYGMHWVRQAPGKGLEWVSGINYNSGYTSYADSVKGRFTISRDNSKNTLYLQMNSLRAEDTAVYYCARGANWHDTHLDYWGQGTLVTVSS VL: DIQMTQSPSSLSASVGDRVTITCRASQSIVSYVNWYQQKPGKAPKLLIYAATSRASGVPSRFSGSGSGTDFTLTISSLQPEDFATYYCQQSYNLPLTFGGGTKVEIK
0.204

Origin of values: patent US20210380703A1
